target: T1, biotinylated NPNA3 peptide (Biotin-linker-NPNANPNANPNA-NH2) (Plasmodium falciparum, synthetic CSP …, reading uncertain); test: BLI; details: both partners purified
T1 construct: not shown: biotin, N-terminal, kept
T1 chain: {Biotin-linker}-NPNANPNANPNA-NH2
* marks the point of attachment. Biotin = O=C1N[C@H]2[C@H](CS[C@H]2CCCCC(=O)*)N1; linker = not defined here
assay.endpoint: binding result

# binder, val
records = [
    ("Fab311 wild type (Fab, V domains shown) VH: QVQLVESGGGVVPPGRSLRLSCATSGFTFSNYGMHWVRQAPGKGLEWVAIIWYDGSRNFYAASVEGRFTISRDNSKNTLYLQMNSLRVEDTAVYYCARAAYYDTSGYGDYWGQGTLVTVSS VL: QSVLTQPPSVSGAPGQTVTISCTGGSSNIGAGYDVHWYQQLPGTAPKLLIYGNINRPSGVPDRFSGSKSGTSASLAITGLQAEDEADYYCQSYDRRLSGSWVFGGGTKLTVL", "binds"),
    ("Fab397 wild type (Fab, V domains shown) VH: EVQLVKSGGGLVKPGGSLRLSCAVSGFTFTDAWMSWVRQAPGKGPEWVGRIKSNPDGGTTDYAAPVRGRFTISRDDSKNTLYLQMNNLKTEDTAVYYCITDRDFYRSGGSWGQGTLVTV VL: DIVMTQSPLSLPVTPGEPASISCRSRQSLLYSNGDNYLDWYLQKPGQSPQLLIYLGSNRAPGVPDRFSGSGSGTDFTLKISRVEAEDVGVYYCMQTLQTPHTFGQGTKLEIK", "binds"),
]
